# MEASUREMENT TARGET: panel of 255 wild-type kinases (Homo sapiens, UniProt O96017)
# Sequence (O96017 whole entry): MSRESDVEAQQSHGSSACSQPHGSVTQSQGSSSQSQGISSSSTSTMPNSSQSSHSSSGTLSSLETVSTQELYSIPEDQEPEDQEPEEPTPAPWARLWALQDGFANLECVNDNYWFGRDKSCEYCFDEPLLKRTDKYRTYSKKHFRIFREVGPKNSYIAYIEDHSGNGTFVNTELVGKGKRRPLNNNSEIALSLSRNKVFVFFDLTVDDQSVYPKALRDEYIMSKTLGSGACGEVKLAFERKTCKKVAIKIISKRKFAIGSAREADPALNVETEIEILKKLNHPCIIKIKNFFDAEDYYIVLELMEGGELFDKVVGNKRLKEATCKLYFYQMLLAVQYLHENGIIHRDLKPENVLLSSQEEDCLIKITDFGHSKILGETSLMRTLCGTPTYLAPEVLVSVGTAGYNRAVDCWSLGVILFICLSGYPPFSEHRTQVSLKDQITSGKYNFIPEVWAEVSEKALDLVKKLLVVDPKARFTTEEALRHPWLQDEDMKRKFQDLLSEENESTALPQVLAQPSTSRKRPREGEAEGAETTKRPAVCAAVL
# MEASUREMENT PROTOCOL: Kinase panel profiling at 1 µmol/L (MSA or IMAP), percentage inhibition
# Type: biochemical
# CONDITION PARAMETERS: CHK2 kinase assay; 1 µmol/L single concentration; read-out: %-inhibition CHK2
PROPERTY NAME: inhibition at 1 µM (%)

>>> print(df.to_string())
                                   molecule       property_name  endpoint_value
0  Cn1cnc2c(F)c(Nc3ccc(Br)cc3Cl)c(C(=O)NOCCO)cc21 [selumetinib]  inhibition at 1 µM               4
1  C=CC(=O)N1CCC([C@@H]2CCNc3c(C(N)=O)c(-c4ccc(Oc5ccccc5)cc4)nn32)CC1 [zanubrutinib]  inhibition at 1 µM               4
2  COc1ccc(CN2C3CC2CN(c2ccc(-c4cc(OCC(C)(C)O)cn5ncc(C#N)c45)cn2)C3)cn1 [selpercatinib]  inhibition at 1 µM              80

* * *

# Test system: 134 cancer cell lines
# MEASUREMENT PROTOCOL: Cell viability assay (ATPlite, 72 hours), IC50 on cancer cell line panel
# CONDITION PARAMETERS: Homo sapiens, HT, read-out: IC50 in cell proliferation assay, HT cell line
Examples of compounds with documented IC50 follow.
PROPERTY NAME: IC50

>>> df
                                   compound     measurement_target  endpoint_value
0  CCCS(=O)(=O)Nc1ccc(F)c(C(=O)c2c[nH]c3ncc(-c4ccc(Cl)cc4)cc23)c1F [vemurafenib]  134 cancer cell lines       > 31.6 µM
1  CC(=O)Nc1cccc(-n2c(=O)n(C3CC3)c(=O)c3c(Nc4ccc(I)cc4F)n(C)c(=O)c(C)c32)c1 [trametinib]  134 cancer cell lines       > 28.2 µM
2  CCN1CCN(c2ccc(Nc3cc(N(C)C(=O)Nc4c(Cl)c(OC)cc(OC)c4Cl)ncn3)cc2)CC1 [infigratinib]  134 cancer cell lines       > 3.16 µM
3  COC(=O)N[C@@H](C)CNc1nccc(-c2cn(C(C)C)nc2-c2cc(Cl)cc(NS(C)(=O)=O)c2F)n1 [encorafenib]  134 cancer cell lines       > 31.6 µM

* * *

# MEASUREMENT TARGET: panel of 255 wild-type kinases (Homo sapiens, UniProt Q14164)
# Sequence (Q14164 whole entry): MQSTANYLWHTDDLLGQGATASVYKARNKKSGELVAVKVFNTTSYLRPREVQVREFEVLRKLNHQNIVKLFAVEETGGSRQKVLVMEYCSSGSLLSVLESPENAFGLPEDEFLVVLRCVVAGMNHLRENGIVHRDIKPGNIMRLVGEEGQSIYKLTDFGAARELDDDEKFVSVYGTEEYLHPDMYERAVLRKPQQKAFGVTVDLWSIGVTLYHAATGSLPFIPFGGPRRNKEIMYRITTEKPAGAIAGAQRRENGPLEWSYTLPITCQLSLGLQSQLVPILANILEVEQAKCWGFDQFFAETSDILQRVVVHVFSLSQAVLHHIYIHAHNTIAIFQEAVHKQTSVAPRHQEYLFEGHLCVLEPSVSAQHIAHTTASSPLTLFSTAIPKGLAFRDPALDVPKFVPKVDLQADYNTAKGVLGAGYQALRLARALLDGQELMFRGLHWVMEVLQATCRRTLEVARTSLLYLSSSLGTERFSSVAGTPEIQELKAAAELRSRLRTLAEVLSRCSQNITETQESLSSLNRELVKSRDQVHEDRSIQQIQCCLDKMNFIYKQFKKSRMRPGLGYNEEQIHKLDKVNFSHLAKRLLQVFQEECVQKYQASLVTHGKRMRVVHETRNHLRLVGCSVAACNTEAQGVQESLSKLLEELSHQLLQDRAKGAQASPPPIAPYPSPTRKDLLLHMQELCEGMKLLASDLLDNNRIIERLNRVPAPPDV
# MEASUREMENT PROTOCOL: Kinase panel profiling at 1 µmol/L (MSA or IMAP), percentage inhibition
# Format: biochemical
# CONDITION PARAMETERS: kinase IKKε; 1 µmol/L single concentration; read-out: %-inhibition at 1 µmol/L, IKKε
Examples of compounds with documented inhibition at 1 µM follow.
PROPERTY NAME: inhibition at 1 µM (%)

In [3]: df
Out[3]:
                                   compound  endpoint_value
0  CCn1c(=O)c(-c2cc(NC(=O)Nc3ccccc3)c(F)cc2Br)cc2cnc(NC)cc21 [ripretinib]              -5
1  C=CC(=O)N1CCC([C@@H]2CCNc3c(C(N)=O)c(-c4ccc(Oc5ccccc5)cc4)nn32)CC1 [zanubrutinib]               6
2  Cn1cc(-c2cc3c(N4CCN(c5ncc([C@@](C)(N)c6ccc(F)cc6)cn5)CC4)ncnn3c2)cn1 [avapritinib]          -0.262
3  C[C@H]1Oc2cc(cnc2N)-c2c(nn(C)c2C#N)CN(C)C(=O)c2ccc(F)cc21 [lorlatinib]           -3.78
4  CCc1nc(C(N)=O)c(Nc2ccc(N3CCC(N4CCN(C)CC4)CC3)c(OC)c2)nc1NC1CCOCC1 [gilteritinib]              10
5  CN1CCN(c2ccc(C(=O)Nc3n[nH]c4ccc(Cc5cc(F)cc(F)c5)cc34)c(NC3CCOCC3)c2)CC1 [entrectinib]               7
6  Cc1nc(NC(=O)N2CCC[C@H]2C(N)=O)sc1-c1ccnc(C(C)(C)C(F)(F)F)c1 [alpelisib]           -4.31
